Test system: Enterococcus sp.
Experiment: In vitro antibacterial evaluation: minimum inhibitory concentration (MIC), broth dilution method
Assay type: cell-based
Conditions: broth dilution, inoculum 5×10^5 CFU/mL, 18 hours at 35° C.
Measured MIC Enterococcus faecalis (GC 2242), listed per entry for reference.
Quick reminder: number only, in µg/mL, skip the unit.

compound: CC(c1ccccc1)C1NC(=O)CNC(=O)C(CO)NC(=O)C(C(O)C2CNC(=N)N2C2OC(CO)C(O)C(O)C2O)NC(=O)C(C(O)C2CNC(=N)N2)NC(=O)C(Cc2ccc(OC3OC(CO)C(OC4OC5COC6(CCCCC6)OC5C(O)C4O)C(O)C3O)cc2)NC1=O (stereo not shown)
MIC Enterococcus faecalis (GC 2242), µg/mL: 4
//
compound: CC(c1ccccc1)C1NC(=O)CNC(=O)C(CO)NC(=O)C(C(O)C2CNC(=N)N2C2OC(CO)C(O)C(O)C2O)NC(=O)C(C(O)C2CNC(=N)N2)NC(=O)C(Cc2ccc(OC3OC(CO)C(OC4OC5COC(c6ccc(C(=O)c7cc(I)c(I)c(I)c7)cc6)OC5C(O)C4O)C(O)C3O)cc2)NC1=O (stereo not shown)
MIC Enterococcus faecalis (GC 2242), µg/mL: 64

Notebook: pull reported MIC Enterococcus faecalis (GC 2242) for Enterococcus sp., entry CCCC(C)C1OCC2OC(OC3C(CO)OC(Oc4ccc(CC5NC(=O)C(C(C)c6ccc(Cl)cc6)NC(=O)CNC(=O)C(CO)NC(=O)C(C(O)C6CNC(=N)N6C6OC(CO)C(O)C(O)C6O)NC(=O)C(C(O)C6CNC(=N)N6)NC5=O)cc4)C(O)C3O)C(O)C(O)C2O1 (stereo not shown)
1
